What viability at 24 h was measured for each of the following?
# experiment-summary: Cytotoxicity against human MCF7 cells assessed as viable cells at 64 to 128 ug/ml incubated for 24 hrs by MTT assay relative to control
# Assay type: cell-based
# condition-label: read-out: Activity
Numbers only, in %.

COc1cccc(-n2cc(COC[C@H]3CN(C)C[C@@H](C)[C@@H](O)[C@H](C)C[C@@](C)(OC)[C@H](O[C@@H]4O[C@H](C)C[C@H](N(C)C)[C@H]4O)[C@@H](C)[C@H](O[C@H]4C[C@@](C)(OC)[C@@H](O)[C@H](C)O4)[C@@H](C)C(=O)O3)nn2)c1: 60

Q) Can you look up the measured viability at 24 h of "CO[C@]1(C)C[C@@H](C)[C@H](O)[C@H](C)CN(C)C[C@H](COCc2cn(-c3ccccc3)nn2)OC(=O)[C@H](C)[C@@H](O[C@H]2C[C@@](C)(OC)[C@@H](O)[C@H](C)O2)[C@H](C)[C@H]1O[C@@H]1O[C@H](C)C[C@H](N(C)C)[C@H]1O" for me?
A) 60
